Where these numbers come from: ChEMBL document CHEMBL1921679

# assayedSystem: Galanin receptor type 2 (Homo sapiens)
# experimentNotes: Displacement of [125I]galanin from GalR2 by gamma counting
Just a reminder that ties go to Not fulfilled: only IC50 strictly below 2 µM counts as Fulfilled.

Reference set, count: 3
• COc1ccc(Nc2nc(Nc3cccc(OC(F)(F)F)c3)cc(N3CCCCC3)n2)cc1 = Fulfilled
• COc1ccc(Nc2nc(Nc3ccc(F)c(Cl)c3)cc(N3CCCCC3)n2)cc1 = Not fulfilled
• COc1ccc(Nc2cc(Nc3cccc(OC)c3)nc(NC3CCCCC3)n2)cc1 = Fulfilled

Let us examine a further case.
Prompt line: For COc1ccc(Nc2cc(Nc3cccc(OC(F)(F)F)c3)nc(NC3CCCCC3)n2)cc1 , is the recorded IC50 below the cut-off of 2 µM?
Response line: Fulfilled

----------
# assayedSystem: Galanin receptor type 1 (Homo sapiens, UniProt P47211)
# Sequence (P47211 whole entry): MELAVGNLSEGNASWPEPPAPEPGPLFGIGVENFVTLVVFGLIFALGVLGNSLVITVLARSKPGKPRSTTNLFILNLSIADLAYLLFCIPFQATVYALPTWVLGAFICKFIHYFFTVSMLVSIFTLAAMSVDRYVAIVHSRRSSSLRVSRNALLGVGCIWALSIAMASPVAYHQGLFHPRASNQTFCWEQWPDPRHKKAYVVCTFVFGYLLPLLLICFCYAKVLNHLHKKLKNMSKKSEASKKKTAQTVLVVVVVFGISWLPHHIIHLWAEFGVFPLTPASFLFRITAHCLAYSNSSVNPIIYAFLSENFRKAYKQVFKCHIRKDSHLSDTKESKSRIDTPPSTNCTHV
# experimentNotes: Displacement of [125I]galanin from GalR1 at 100 uM by gamma counting
attributeMeasured: IC50

- COc1ccc(Nc2nc(Nc3ccc(F)cc3C)cc(N3CCCCC3)n2)cc1: Not Active
- COc1ccc(Nc2nc(Nc3ccc(OC(F)(F)F)cc3)cc(N3CCCCC3)n2)cc1: Not Active
- COc1ccc(Nc2nc(Nc3cccc(OC(F)(F)F)c3)cc(N3CCCCC3)n2)cc1: Not Active
- COc1ccc(Nc2nc(Nc3ccc(OC)c(F)c3)cc(N3CCCCC3C)n2)cc1 (stereo unspecified): Not Active
- COc1ccc(Nc2cc(Nc3ccc(OC)cc3)nc(N3CCCC3)n2)cc1: Not Active
- COc1ccc(Nc2nc(Nc3ccc(C)cc3C)cc(N3CCCCC3)n2)cc1: Not Active
- FC(F)(F)Oc1ccc(Nc2cc(Nc3ccccc3)nc(N3CCCCC3)n2)cc1: Not Active
- COc1ccc(Nc2nc(Nc3ccc(C(F)(F)F)cc3)cc(N3CCCCC3)n2)cc1: Not Active

Prompt line: Consider the compound shown here: COc1ccc(Nc2nc(Nc3ccc(OC)c(F)c3)cc(N3CCCCC3)n2)cc1 What is its recorded IC50?
Response line: Not Active

Prompt line: Consider the compound shown here: c1ccc(Nc2cc(NCc3ccc4c(c3)OCO4)nc(N3CCCCC3)n2)cc1 What is its recorded IC50?
Response line: Not Active

Prompt line: Consider the compound shown here: CCN(CC)c1cc(Nc2ccc(OC)c(F)c2)nc(Nc2ccc(OC)cc2)n1 What is its recorded IC50?
Response line: Not Active

----------
IC50 overview
# assayedSystem: Galanin receptor type 2 (Homo sapiens, UniProt O43603)
# Sequence (O43603 whole entry): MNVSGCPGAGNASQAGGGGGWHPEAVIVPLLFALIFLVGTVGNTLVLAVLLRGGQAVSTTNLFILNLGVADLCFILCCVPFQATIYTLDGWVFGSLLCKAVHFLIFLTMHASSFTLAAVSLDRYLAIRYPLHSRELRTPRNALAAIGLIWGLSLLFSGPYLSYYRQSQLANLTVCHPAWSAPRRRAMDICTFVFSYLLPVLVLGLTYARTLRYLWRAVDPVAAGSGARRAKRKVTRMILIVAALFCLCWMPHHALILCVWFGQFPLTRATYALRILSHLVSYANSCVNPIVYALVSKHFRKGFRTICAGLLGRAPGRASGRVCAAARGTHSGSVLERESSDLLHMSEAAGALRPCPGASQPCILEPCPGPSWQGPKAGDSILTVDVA
# experimentNotes: Displacement of [125I]galanin from GalR2 by gamma counting

• COc1ccc(Nc2nc(Nc3ccc(OC(F)(F)F)cc3)cc(N3CCCCC3)n2)cc1 = 330 nM
• COc1ccc(Nc2nc(Nc3ccc(OC)c(F)c3)cc(N3CCCN(C(=O)OC(C)(C)C)CC3)n2)cc1 = 9070 nM
• FC(F)(F)Oc1cccc(Nc2cc(Nc3ccccc3)nc(N3CCCCC3)n2)c1 = 6620 nM
• COc1ccc(Nc2nc(Nc3ccc(OC)c(F)c3)cc(N3CCCC(C)C3)n2)cc1 (stereo not given) = 1340 nM
• Cc1c(F)cccc1Nc1cc(N2CCCCC2)nc(N2CCCN(c3ncccc3C(F)(F)F)CC2)n1 = 560 nM

Prompt line: Consider the compound shown here: COc1ccc(Nc2cc(N3CCCCC3)nc(N3CCCN(c4ncccc4C(F)(F)F)CC3)n2)cc1 What is its recorded IC50?
Response line: 1920 nM

Prompt line: Consider the compound shown here: COc1ccc(Nc2nc(Nc3ccc(OC)c(F)c3)cc(N3CCCCCC3)n2)cc1 What is its recorded IC50?
Response line: 770 nM

Prompt line: Consider the compound shown here: COc1ccc(Nc2nc(Nc3cc(C)ccc3C)cc(N3CCCCC3)n2)cc1 What is its recorded IC50?
Response line: 440 nM

Prompt line: Consider the compound shown here: COc1ccc(Nc2cc(Nc3cccc(OC(F)F)c3)nc(NC3CCCCC3)n2)cc1 What is its recorded IC50?
Response line: 770 nM

Prompt line: Consider the compound shown here: COc1ccc(Nc2cc(Nc3ccc(OC)cc3)nc(N3CCCC3)n2)cc1 What is its recorded IC50?
Response line: 8040 nM

Prompt line: Consider the compound shown here: COc1ccc(Nc2nc(Nc3ccc(C)cc3C)cc(N3CCCCC3)n2)cc1 What is its recorded IC50?
Response line: 1180 nM

Prompt line: Consider the compound shown here: COc1ccc(Nc2nc(Nc3ccc(C(F)(F)F)cc3)cc(N3CCCCC3)n2)cc1 What is its recorded IC50?
Response line: 780 nM

Prompt line: Consider the compound shown here: COc1ccc(Nc2nc(Nc3ccc(OC)c(F)c3)cc(N3CCCCC3)n2)cc1 What is its recorded IC50?
Response line: 430 nM

Prompt line: Consider the compound shown here: COc1ccc(Nc2cc(Nc3cccc(OC)c3)nc(N3CCCC3)n2)cc1 What is its recorded IC50?
Response line: 930 nM

Prompt line: Consider the compound shown here: Cc1ccc(C)c(Nc2cc(Nc3ccccc3)nc(N3CCCCC3)n2)c1 What is its recorded IC50?
Response line: 4570 nM

----------
IC50 overview
# assayedSystem: Galanin receptor type 1 (Homo sapiens)
# experimentNotes: Displacement of [125I]galanin from GalR1 by gamma counting
Include the unit after the number when you answer.

Solved cases below.
• COc1ccc(Nc2cc(Nc3cccc(OC)c3)nc(NC3CCCCC3)n2)cc1 = 5.62 µM
• COc1ccc(Nc2nc(Nc3ccc(OC)c(F)c3)cc(N3CCCN(C(=O)OC(C)(C)C)CC3)n2)cc1 = 2.82 µM
• Cc1c(F)cccc1Nc1cc(N2CCCCC2)nc(N2CCCN(c3ncccc3C(F)(F)F)CC2)n1 = 1.3 µM
• COc1ccc(Nc2cc(Nc3ccc(OC(F)F)cc3)nc(NC3CCCCC3)n2)cc1 = 27.5 µM
• COc1ccc(Nc2cc(Nc3cccc(OC(F)F)c3)nc(NC3CCCCC3)n2)cc1 = 5.03 µM
• COc1ccc(Nc2nc(Nc3ccc(OC)c(F)c3)cc(N3CCCC(C)C3)n2)cc1 (configuration not stated) = 6.78 µM
• Cc1ccc(C)c(Nc2cc(N3CCCCC3)nc(N3CCCN(c4ncccc4C(F)(F)F)CC3)n2)c1 = 3.9 µM
• COc1ccc(Nc2nc(Nc3ccc(OC)c(F)c3)cc(N3CCN(c4ncccn4)CC3)n2)cc1 = 3.84 µM

Prompt line: Consider the molecule shown here: COc1ccc(Nc2cc(Nc3ccccc3)nc(N3CCCCC3)n2)cc1 What is its recorded IC50?
Response line: 8.59 µM

Prompt line: Consider the molecule shown here: COc1ccc(Nc2cc(N3CCN(c4ccccc4)CC3)nc(N3CCCC3)n2)cc1 What is its recorded IC50?
Response line: 12.8 µM

Prompt line: Consider the molecule shown here: FC(F)(F)Oc1cccc(Nc2cc(Nc3ccccc3)nc(N3CCCCC3)n2)c1 What is its recorded IC50?
Response line: 34.9 µM

Prompt line: Consider the molecule shown here: COc1ccc(Nc2cc(N3CCCCC3)nc(N3CCCN(c4ncccc4C(F)(F)F)CC3)n2)cc1F What is its recorded IC50?
Response line: 6.32 µM

Prompt line: Consider the molecule shown here: COc1ccc(Nc2cc(Nc3cccc(OC)c3)nc(N3CCCC3)n2)cc1 What is its recorded IC50?
Response line: 4.6 µM

Prompt line: Consider the molecule shown here: COc1ccc(Nc2nc(Nc3ccc(OC)c(F)c3)cc(N3CCCCCC3)n2)cc1 What is its recorded IC50?
Response line: 5.48 µM

Prompt line: Consider the molecule shown here: COc1ccc(Nc2nc(NCC3CCCCC3)cc(Nc3ccc(OC)c(F)c3)n2)cc1 What is its recorded IC50?
Response line: 3.84 µM

Prompt line: Consider the molecule shown here: COc1ccc(Nc2cc(Nc3ccccc3)nc(N3CCCCC3)n2)cc1F What is its recorded IC50?
Response line: 6.77 µM

Prompt line: Consider the molecule shown here: COc1ccc(Nc2cc(Nc3ccc(OC(F)(F)F)cc3)nc(NC3CCCCC3)n2)cc1 What is its recorded IC50?
Response line: 5.93 µM

Prompt line: Consider the molecule shown here: COc1ccc(Nc2nc(Nc3ccc(OC)c(F)c3)cc(N3CCC(N4CCCCC4)CC3)n2)cc1 What is its recorded IC50?
Response line: 16 µM

Prompt line: Consider the molecule shown here: COc1ccc(Nc2cc(N3CCCCC3)nc(N3CCCN(c4ncccc4C(F)(F)F)CC3)n2)cc1 What is its recorded IC50?
Response line: 3.35 µM

Prompt line: Consider the molecule shown here: COc1ccc(Nc2cc(Nc3cccc(OC(F)(F)F)c3)nc(NC3CCCCC3)n2)cc1 What is its recorded IC50?
Response line: 6.82 µM

Prompt line: Consider the molecule shown here: FC(F)Oc1cccc(Nc2cc(Nc3ccccc3)nc(N3CCCCC3)n2)c1 What is its recorded IC50?
Response line: 6.9 µM

Prompt line: Consider the molecule shown here: COc1ccc(Nc2nc(Nc3ccc(OC)c(F)c3)cc(N3CCN(c4ccccc4)CC3)n2)cc1 What is its recorded IC50?
Response line: 6.82 µM
